test: Colchicine pharmacokinetics coadministered with voriconazole; details: male, human, in vivo, 0.6 mg, Cmax, Treatment-1 (day 1): colchicine 0.6 mg alone, fasted; voriconazole study; mean

| item_smiles | Cmax [ng/mL] |
| --- | --- |
| COc1cc2c(c(OC)c1OC)-c1ccc(OC)c(=O)cc1[C@@H](NC(C)=O)CC2 | 2.66 |

* * *

assay: clinical; conditions: male, human, in vivo, Cmax, Treatment-2 (day 9): colchicine 0.6 mg + propafenone 225 mg after twice daily days 4-8, fasted; mean
measure: Cmax (ng/mL)

| item_smiles | units_symbol | value_measured |
| --- | --- | --- |
| COc1cc2c(c(OC)c1OC)-c1ccc(OC)c(=O)cc1[C@@H](NC(C)=O)CC2 | ng/mL | 2.21 |
